Tested on: SW620 colon cancer cell line
Protocol text: Monolayer growth inhibition assay (MTT/MTS)
Assay type: cell-based
Study conditions: Homo sapiens, SW-620, 72 h; SW620, 3 days treatment
Measure name: pIC50
Give bare numbers, as −log10 of the molar value.

Entry Cc1[nH]c2ccccc2c1CCNCc1ccc(/C=C/C(=O)NO)cc1 has what pIC50?
9.10

====

Test system: Colo320 colon cancer cell line
Protocol text: Monolayer growth inhibition assay (MTT/MTS)
Type: cell-based
Study conditions: Homo sapiens, COLO 320, 72 h; Colo320, 3 days treatment
Measure name: pIC50
Answers are plain numbers, as −log10 of the molar value.

Entry Cc1[nH]c2ccccc2c1CCNCc1ccc(/C=C/C(=O)NO)cc1 has what pIC50?
8.19

====

Test system: C170 colon cancer cell line
Protocol text: Monolayer growth inhibition assay (MTT/MTS)
Format: cell-based
Study conditions: Homo sapiens, 72 h; C170, 3 days treatment
Measure name: IC50 (nM)
One number for each entry, in nM.

Entry Cc1[nH]c2ccccc2c1CCNCc1ccc(/C=C/C(=O)NO)cc1 has what IC50?
62.3

====

System: SU.86.86 pancreatic cancer cell line
Protocol text: Cell proliferation assay, pancreatic cancer cell lines
Type: cell-based
Study conditions: Homo sapiens, 72 h; SU.86.86, 3 days treatment
Measure name: pIC50
Answers are plain numbers, as −log10 of the molar value.

Entry Cc1[nH]c2ccccc2c1CCNCc1ccc(/C=C/C(=O)NO)cc1 has what pIC50?
7.29

====

Tested on: Colo678 colon cancer cell line
Protocol text: Monolayer growth inhibition assay (MTT/MTS)
Type: cell-based
Study conditions: Homo sapiens, COLO-678, 72 h; Colo678, 3 days treatment
Measure name: IC50 (nM)
Numbers only, in nM.

Look up IC50 with Colo678 colon cancer cell line for this molecule: Cc1[nH]c2ccccc2c1CCNCc1ccc(/C=C/C(=O)NO)cc1
5.6

====

System: DLD-1 colon cancer cell line
Protocol text: Monolayer growth inhibition assay (MTT/MTS)
Format: cell-based
Study conditions: Homo sapiens, 72 h; DLD-1, 3 days treatment
Measure name: pIC50
Answers are plain numbers, as −log10 of the molar value.

Entry Cc1[nH]c2ccccc2c1CCNCc1ccc(/C=C/C(=O)NO)cc1 has what pIC50?
7.21

====

System: HT115 colon cancer cell line
Protocol text: Monolayer growth inhibition assay (MTT/MTS)
Format: cell-based
Study conditions: 72 h; HT115, 3 days treatment
Measure name: IC50 (nM)
One number for each entry, in nM.

Entry Cc1[nH]c2ccccc2c1CCNCc1ccc(/C=C/C(=O)NO)cc1 has what IC50?
3.49

====

Tested on: Panc4.03 pancreatic cancer cell line
Protocol text: Cell proliferation assay, pancreatic cancer cell lines
Format: cell-based
Study conditions: Pancreatic cancer cell, 72 h; Panc4.03, 3 days treatment
Measure name: pIC50
Numbers only, as −log10 of the molar value.

Entry Cc1[nH]c2ccccc2c1CCNCc1ccc(/C=C/C(=O)NO)cc1 has what pIC50?
7.69

====

System: Panc3.27 pancreatic cancer cell line
Protocol text: Cell proliferation assay, pancreatic cancer cell lines
Assay type: cell-based
Study conditions: Pancreatic cancer cell, 72 h; Panc3.27, 3 days treatment
Measure name: IC50 (nM)
Answers are plain numbers, in nM.

Look up IC50 with Panc3.27 pancreatic cancer cell line for this compound: Cc1[nH]c2ccccc2c1CCNCc1ccc(/C=C/C(=O)NO)cc1 [LBH589]
38.5

====

System: HPAC pancreatic cancer cell line
Protocol text: Cell proliferation assay, pancreatic cancer cell lines
Format: cell-based
Study conditions: Homo sapiens, 72 h, 3 days treatment
Measure name: pIC50
Numbers only, as −log10 of the molar value.

Entry Cc1[nH]c2ccccc2c1CCNCc1ccc(/C=C/C(=O)NO)cc1 has what pIC50?
6.91
